The measurements presented in this section are drawn from PubChem BioAssay (EPA / NIEHS).

- Protocol summary: APR_HepG2_CellCycleArrest_24hr: Apredica 24-hour HepG2 Assay for Cell Cycle Arrest (AID 2282905);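 note: cell cycle arrest scored as ratio of 2N to 4N nuclear DNA content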
- Conditions: imaging, actives raise or lower the signal
- Description: APR_HepG2_24hr is a cell-based, multiplexed-readout assay that uses HepG2, a human liver cell line, with measurements taken at 24 hours after chemical dosing in a 384-well plate.APR_HepG2_CellCycleArrest_24hr is one of 10 assay component(s) measured or calculated from the APR_HepG2_24hr assay. […] This assay endpoint, APR_HepG2_CellCycleArrest_24hr, was analyzed with bidirectional fitting relative to DMSO as the negative control and baseline of activity. […]
The source made the active and inactive calls. Rule for the calls: active = hit-call score of the fitted dose curve at least 0.9, where 1 is the maximum; inactive = score below 0.9.
Possible outcomes: label 1 (active), label 0 (inactive)

Smiles | Qualitative label
CCOC(=O)C(O)(c1ccc(Cl)cc1)c1ccc(Cl)cc1 | label 1
O=C(O)C(F)(F)C(F)(F)C(F)(F)C(F)(F)C(F)(F)C(F)(F)C(F)(F)C(F)(F)F | label 1
C=CC(N)=O | label 0
Cc1cc(O)ccc1Cl | label 0
ClC(Cl)=C(c1ccc(Cl)cc1)c1ccc(Cl)cc1 | label 0
O=S(=O)(O)C(F)(F)C(F)(F)C(F)(F)C(F)(F)F | label 0
Cc1cccc(C)c1N | label 0
ClC1=C(Cl)[C@]2(Cl)[C@@H]3[C@@H](Cl)[C@H]4O[C@H]4[C@@H]3C1(Cl)C2(Cl)Cl | label 1
CCCCCCCCCC[N+](C)(C)CCCCCCCCCC | label 1
CC(c1ccc(O)cc1)(c1ccc(O)cc1)c1ccc(O)cc1 | label 0
O=C(N[C@H]1CN2CCC1CC2)c1cc2ccoc2cn1 | label 0
N#Cc1ccc(N(CC(N)=O)CC(F)(F)F)cc1C(F)(F)F | label 0
Cc1cccc([N+](=O)[O-])c1 | label 0
NS(=O)(=O)C(F)(F)C(F)(F)C(F)(F)C(F)(F)C(F)(F)C(F)(F)C(F)(F)C(F)(F)F | label 1
Cc1cc2c3c(c1)C(c1ccccc1)=N[C@@H](NC(=O)c1ccncc1)C(=O)N3CC2 | label 0
C[C@]12CCC(=O)C=C1CC[C@@H]1[C@@H]2CC[C@]2(C)C(=O)CC[C@@H]12 | label 0
CCCCCCCCCc1ccc(O)cc1 | label 0
CCC(C)(c1ccc(O)cc1)c1ccc(O)cc1 | label 0
Oc1c(Cl)c(Cl)c(Cl)c(Cl)c1Cl | label 1
Oc1ccc(Cl)cc1Cl | label 0
CO/C=C(/C(=O)OC)c1ccccc1COc1cccc(C(F)(F)F)n1 | label 0
O=NN(c1ccccc1)c1ccccc1 | label 0
C[C@]12CCC(=O)C=C1CC[C@@H]1[C@@H]2CC[C@@]2(C)[C@H]1CC[C@]2(C)O | label 0
Cc1ccccc1O | label 0
CN(C)CCO | label 0
c1ccc(-c2ccccc2)cc1 | label 0
